system: Vibrio campbellii BAA 1119 (AI-2); assay: Viability of the quorum-sensing reporter culture (resazurin assay), AI-2 strain; format: cell-based; settings: BAA1119, V. campbellii BAA 1119, resazurin assay, read-out: IC50 (concentration that halved the viability)
Measured property: pIC50
Scale explanation: pIC50 corresponds to minus log10 of a concentration expressed in moles per litre.

Prompt: Item: O=C1c2c(O)cc(O)cc2OC(c2ccc(O)c(O)c2)C1O (stereo not drawn) [compound 1, taxifolin, reference compound] Test system: Vibrio campbellii BAA 1119 (AI-2) Read-out: pIC50 Value: ?
Response: 4.10

Prompt: Item: COc1cc([C@@H]2Oc3cc([C@H]4Oc5cc(O)cc(O)c5C(=O)[C@@H]4O)ccc3O[C@H]2CO)ccc1O [3b, silybin B, reference compound] Test system: Vibrio campbellii BAA 1119 (AI-2) Read-out: pIC50 Value: ?
Response: 3.82

Further cases:
Prompt: Item: COc1cc(C2Oc3cc(-c4oc5c(Br)c(O)c(Br)c(O)c5c(=O)c4O)ccc3OC2CO)ccc1O (stereo not drawn) [compound 17, 6,8-dibromo-2,3-dehydrosilybin AB] Test system: Vibrio campbellii BAA 1119 (AI-2) Read-out: pIC50 Value: ?
Response: 3.90

====

Overview of reported FRAP [Fe2+eq] across a group of molecules:
assay: Ferric reducing antioxidant power (FRAP); conditions: Fe2+ equivalents
Expressed in Fe2+eq, but write only the number.

Prompt: Could you share which FRAP [Fe2+eq] value was measured for COc1cc(C2Oc3cc(-c4oc5c(Br)c(O)c(Br)c(O)c5c(=O)c4O)ccc3OC2CO)ccc1O (stereo not drawn) [compound 17, 6,8-dibromo-2,3-dehydrosilybin AB] ?
Response: 0.54

Prompt: Could you share which FRAP [Fe2+eq] value was measured for O=C1c2c(O)c(Br)c(O)c(Br)c2O[C@H](c2ccc(O)c(O)c2)[C@H]1O ?
Response: 2.20

Prompt: Could you share which FRAP [Fe2+eq] value was measured for COc1cc(C2Oc3cc(-c4oc5cc(O)cc(O)c5c(=O)c4O)ccc3OC2CO)ccc1O (stereo not drawn) [compound 4, 2,3-dehydrosilybin AB, reference compound] ?
Response: 0.72

====

system: Vibrio campbellii BAA 1118 (AI-1); assay: Viability of the quorum-sensing reporter culture (resazurin assay), AI-1 strain; format: cell-based; conditions: BAA1118, V. campbellii BAA 1118, resazurin assay, read-out: IC50 (concentration that halved the viability)
Overview of reported pIC50 across a group of molecules:
Scale explanation: pIC50 corresponds to minus log10 of a concentration expressed in moles per litre.

Prompt: Could you share which pIC50 value was measured for COc1cc([C@@H]2Oc3cc([C@H]4Oc5cc(O)cc(O)c5C(=O)[C@@H]4O)ccc3O[C@H]2CO)ccc1O [3b, silybin B, reference compound] ?
Response: 3.93

Further cases:
Prompt: Could you share which pIC50 value was measured for O=C1c2c(O)cc(O)cc2OC(c2ccc(O)c(O)c2)C1O (stereo not shown) [compound 1, taxifolin, reference compound] ?
Response: 4.15

Prompt: Could you share which pIC50 value was measured for O=c1c(O)c(-c2ccc(O)c(O)c2)oc2cc(O)cc(O)c12 [compound 2, quercetin, reference compound] ?
Response: 4.61

====

system: Vibrio campbellii BAA 1119 (AI-2); assay: microbe, parasite or virus in culture; type: cell-based; conditions: Vibrio campbellii, BAA1119, 16 h, read-out: EC50 (concentration that halved the communication)
Measured property: pEC50
Scale explanation: pEC50 corresponds to minus log10 of a concentration expressed in moles per litre.

Prompt: Item: O=c1c(O)c(-c2ccc(O)c(O)c2)oc2c(Br)c(O)cc(O)c12 Test system: Vibrio campbellii BAA 1119 (AI-2) Read-out: pEC50 Value: ?
Response: 6.40

Now for another entry.
Prompt: Item: O=c1c(O)c(-c2ccc(O)c(O)c2)oc2c(Br)c(O)c(Br)c(O)c12 Test system: Vibrio campbellii BAA 1119 (AI-2) Read-out: pEC50 Value: ?
Response: 6.15
